Tested on: HuP-T4 (Pancreatic Carcinoma)
Test: Bliss excess, mean over the matrix (fraction); higher = more synergy
RECORDED_METRIC: Bliss excess

>>> val("CN(CCO)CC[C@H](CSc1ccccc1)Nc1ccc(S(=O)(=O)NC(=O)c2ccc(N3CCC([C@@H](O)c4ccccc4-c4ccc(Cl)cc4)CC3)cc2)cc1S(=O)(=O)C(F)(F)F [AZD4320] + C[C@@H](Nc1cc(F)cc(F)c1)c1cc(C(=O)N(C)C)cc2c(=O)cc(N3CCOCC3)oc12 [AZD8186] (first compound max 1 µM, 7x7, partner max 3 µM)")
0.0664
>>> val("CN(C)CCCOc1ccc(-c2ccc3ncc4c(c3c2)n(C2CCOCC2)c(=O)n4C)cn1 [AZD0156] + C[C@@H]1COCCN1C2=NC(=NC(=C2)C3(CC3)[S@](=N)(=O)C)C4=C5C=CNC5=NC=C4 [AZD6738] (first compound max 1 µM, 7x7, partner max 10 µM)")
0.0118
>>> val("Cc1c2c(nn1C)CSCc1cc(n(C)n1)CSc1cc(c3ccccc3c1)OCCCc1c(C(=O)O)n(C)c3c-2c(Cl)ccc13 [AZD5991] + C=CCn1c(=O)c2cnc(Nc3ccc(N4CCN(C)CC4)cc3)nc2n1-c1cccc(C(C)(C)O)n1 [AZD1775] (first compound max 1 µM, partner max 1 µM)")
-0.0039
>>> val("C=CCn1c(=O)c2cnc(Nc3ccc(N4CCN(C)CC4)cc3)nc2n1-c1cccc(C(C)(C)O)n1 [AZD1775] + O=C(c1cc(Cc2n[nH]c(=O)c3ccccc23)ccc1F)N1CCN(C(=O)C2CC2)CC1 [Olaparib] (first compound max 1 µM, partner max 10 µM)")
0.0075
>>> val("CC(=O)Nc1cccc(-n2c(=O)n(C3CC3)c(=O)c3c(Nc4ccc(I)cc4F)n(C)c(=O)c(C)c32)c1 [Trametinib] + Cc1nc(-c2cn3c(n2)-c2ccc(-c4cnn(C(C)(C)C(N)=O)c4)cc2OCC3)n(C(C)C)n1 [Taselisib] (first compound max 1 µM, 7x7, partner max 10 µM)")
0.241
>>> val("NC1(C(=O)N[C@@H](CCO)c2ccc(Cl)cc2)CCN(c2ncnc3[nH]ccc23)CC1 [Capivasertib] + CCN(CCO)CCCOc1ccc2c(Nc3cc(CC(=O)Nc4cccc(F)c4)[nH]n3)ncnc2c1 [AZD2811] (first compound max 10 µM, 7x7, partner max 1 µM)")
-0.0614
>>> val("COc1cccc2c1C(=O)c1c(O)c3c(c(O)c1C2=O)C[C@@](O)(C(=O)CO)C[C@@H]3O[C@H]1C[C@H](N)[C@H](O)[C@H](C)O1 [Doxorubicin] + Cc1cc2ncnn2cc1Nc1ncc2c(n1)n(C1CCOCC1)c(=O)n2C [AZD7648] (first compound max 1 µM, 7x7, partner max 10 µM)")
0.0316

###

Test system: NOS-1 (Osteosarcoma)
Assay: combination Emax (second highest fraction inhibited in the dose matrix, 72 h); higher = more inhibition; extreme values may be limits of the assay
RECORDED_METRIC: combination Emax

>>> val("COc1nnc2ccc(N3CCC(c4ccc(OCCN5CCN(C)C(=O)[C@H]5C)cc4)CC3)nn12 [AZD5153] + CCN(CCO)CCCOc1ccc2c(Nc3cc(CC(=O)Nc4cccc(F)c4)[nH]n3)ncnc2c1 [AZD2811] (first compound max 1 µM, 7x7, partner max 1 µM)")
0.765
>>> val("C[C@@H](c1ccc2nccn2c1)n1nnc2ncc(-c3cnn(C)c3)nc21 [Savolitinib] + Cc1c2c(nn1C)CSCc1cc(n(C)n1)CSc1cc(c3ccccc3c1)OCCCc1c(C(=O)O)n(C)c3c-2c(Cl)ccc13 [AZD5991] (first compound max 1 µM, 7x7, partner max 1 µM)")
0.742
>>> val("COc1cccc(OCCCN)c1-c1cc(Nc2cnc(C#N)cn2)n[nH]1 [Prexasertib] + O=C(c1cc(Cc2n[nH]c(=O)c3ccccc23)ccc1F)N1CCN(C(=O)C2CC2)CC1 [Olaparib] (first compound max 1 µM, 7x7, partner max 10 µM)")
0.373
>>> val("CC(=O)c1c(C)c2cnc(Nc3ccc(N4CCNCC4)cn3)nc2n(C2CCCC2)c1=O [Palbociclib] + CN(CC[C@H](CSC1=CC=CC=C1)NC2=C(C=C(C=C2)S(=O)(=O)NC(=O)C3=CC=C(C=C3)N4CCC(CC4)[C@H](C5=CC=CC=C5C6=CC=C(C=C6)Cl)O)S(=O)(=O)C(F)(F)F)CCO [AZD4320] (first compound max 10 µM, 7x7, partner max 1 µM)")
0.952

###

Tested on: Ramos-2G6-4C10 (Burkitt's Lymphoma)
Assay: Bliss excess, mean over the matrix (fraction); higher = more synergy
Each entry falls in a class defined on Bliss excess; the bands are low interval = under -0.02, middle interval = from -0.02 up to 0.04, high interval = 0.04 and over

>>> category_label("NC1(C(=O)N[C@@H](CCO)c2ccc(Cl)cc2)CCN(c2ncnc3[nH]ccc23)CC1 [Capivasertib] + CCN(CCO)CCCOc1ccc2c(Nc3cc(CC(=O)Nc4cccc(F)c4)[nH]n3)ncnc2c1 [AZD2811] (first compound max 10 µM, 7x7, partner max 1 µM)")
"high interval"
>>> category_label("CC1(C)CCC(CN2CCN(c3ccc(C(=O)NS(=O)(=O)c4ccc(NCC5CCOCC5)c([N+](=O)[O-])c4)c(Oc4cnc5[nH]ccc5c4)c3)CC2)=C(c2ccc(Cl)cc2)C1 [Venetoclax] + COc1cc(Nc2ncc3c(n2)-c2ccc(Cl)cc2C(c2c(F)cccc2OC)=NC3)ccc1C(=O)O [Alisertib] (first compound max 1 µM, 7x7, partner max 10 µM)")
"middle interval"
>>> category_label("CC1(C)CCC(CN2CCN(c3ccc(C(=O)NS(=O)(=O)c4ccc(NCC5CCOCC5)c([N+](=O)[O-])c4)c(Oc4cnc5[nH]ccc5c4)c3)CC2)=C(c2ccc(Cl)cc2)C1 [Venetoclax] + CCN(CCO)CCCOc1ccc2c(Nc3cc(CC(=O)Nc4cccc(F)c4)[nH]n3)ncnc2c1 [AZD2811] (first compound max 1 µM, 7x7, partner max 1 µM)")
"middle interval"
>>> category_label("COc1nnc2ccc(N3CCC(c4ccc(OCCN5CCN(C)C(=O)[C@H]5C)cc4)CC3)nn12 [AZD5153] + C[C@@H]1COCCN1C2=NC(=NC(=C2)C3(CC3)[S@](=N)(=O)C)C4=C5C=CNC5=NC=C4 [AZD6738] (first compound max 1 µM, 7x7, partner max 10 µM)")
"low interval"
>>> category_label("CN(C)CCCOc1ccc(-c2ccc3ncc4c(c3c2)n(C2CCOCC2)c(=O)n4C)cn1 [AZD0156] + C=CCn1c(=O)c2cnc(Nc3ccc(N4CCN(C)CC4)cc3)nc2n1-c1cccc(C(C)(C)O)n1 [AZD1775] (first compound max 1 µM, partner max 1 µM)")
"middle interval"
>>> category_label("COc1cccc2c1C(=O)c1c(O)c3c(c(O)c1C2=O)C[C@@](O)(C(=O)CO)C[C@@H]3O[C@H]1C[C@H](N)[C@H](O)[C@H](C)O1 [Doxorubicin] + Cc1cc2ncnn2cc1Nc1ncc2c(n1)n(C1CCOCC1)c(=O)n2C [AZD7648] (first compound max 1 µM, 7x7, partner max 10 µM)")
"high interval"
>>> category_label("Cn1cnc2c(F)c(Nc3ccc(Br)cc3Cl)c(C(=O)NOCCO)cc21 [Selumetinib] + CC(C)n1c(=O)n(C)c2cnc3cc(F)c(-c4ccc(OCCCN5CCCCC5)nc4)cc3c21 [AZD1390] (first compound max 10 µM, 7x7, partner max 0.3 µM)")
"low interval"
>>> category_label("CC1(C)CCC(CN2CCN(c3ccc(C(=O)NS(=O)(=O)c4ccc(NCC5CCOCC5)c([N+](=O)[O-])c4)c(Oc4cnc5[nH]ccc5c4)c3)CC2)=C(c2ccc(Cl)cc2)C1 [Venetoclax] + C=CCn1c(=O)c2cnc(Nc3ccc(N4CCN(C)CC4)cc3)nc2n1-c1cccc(C(C)(C)O)n1 [AZD1775] (first compound max 1 µM, partner max 1 µM)")
"high interval"
>>> category_label("O=C(c1cc(Cc2n[nH]c(=O)c3ccccc23)ccc1F)N1CCN(C(=O)C2CC2)CC1 [Olaparib] + CC1(C)CCC(CN2CCN(c3ccc(C(=O)NS(=O)(=O)c4ccc(NCC5CCOCC5)c([N+](=O)[O-])c4)c(Oc4cnc5[nH]ccc5c4)c3)CC2)=C(c2ccc(Cl)cc2)C1 [Venetoclax] (first compound max 10 µM, 7x7, partner max 1 µM)")
"middle interval"
>>> category_label("CCc1c2c(nc3ccc(O)cc13)-c1cc3c(c(=O)n1C2)COC(=O)[C@]3(O)CC [SN-38] + CN(C)CCCOc1ccc(-c2ccc3ncc4c(c3c2)n(C2CCOCC2)c(=O)n4C)cn1 [AZD0156] (first compound max 0.3 µM, 7x7, partner max 1 µM)")
"middle interval"
>>> category_label("Cc1c2c(nn1C)CSCc1cc(n(C)n1)CSc1cc(c3ccccc3c1)OCCCc1c(C(=O)O)n(C)c3c-2c(Cl)ccc13 [AZD5991] + CN(C)CCCOc1ccc(-c2ccc3ncc4c(c3c2)n(C2CCOCC2)c(=O)n4C)cn1 [AZD0156] (first compound max 1 µM, 7x7, partner max 1 µM)")
"middle interval"
>>> category_label("C[C@@H]1COCCN1c1cc(C2([S@](C)(=N)=O)CC2)nc(-c2ccnc3[nH]ccc23)n1 [AZD6738] + O=C(c1cc(Cc2n[nH]c(=O)c3ccccc23)ccc1F)N1CCN(C(=O)C2CC2)CC1 [Olaparib] (first compound max 10 µM, 7x7, partner max 10 µM)")
"low interval"

This collection of values is drawn from the supplement of paper PMC11061612.
